Source: patent US20230365537A1

- STUDY SYSTEM: human recombinant Aurora B (Homo sapiens (Human), UniProt Q96GD4)
- Sequence (Q96GD4 whole entry): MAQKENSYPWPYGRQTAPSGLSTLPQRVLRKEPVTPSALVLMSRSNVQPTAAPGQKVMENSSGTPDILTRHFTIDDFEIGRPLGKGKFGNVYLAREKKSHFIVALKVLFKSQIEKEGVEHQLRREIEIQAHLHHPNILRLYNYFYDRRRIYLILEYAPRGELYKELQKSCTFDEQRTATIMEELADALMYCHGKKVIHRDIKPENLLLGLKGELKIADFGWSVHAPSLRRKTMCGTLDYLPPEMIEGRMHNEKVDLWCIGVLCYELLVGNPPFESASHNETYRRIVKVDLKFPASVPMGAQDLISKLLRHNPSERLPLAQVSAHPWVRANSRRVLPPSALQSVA
- METHOD NOTES: Aurora B Kinase Biochemical Assay (ADP-Glo)
- PARTICULARS: ratio of Aurora B IC50 to PLK4 IC50 (selectivity)
OBSERVABLE: [Aurora B IC50 (nM)]/[PLK4 IC50 (nM)]

[
  {
    "COMPOUND SMILES": "COc1ccc2c(c1)[C@]1(C[C@H]1c1ccc3c(Nc4nc(N5CC(F)C5)ncc4OC)n[nH]c3c1)C(=O)N2",
    "OBSERVABLE": "[Aurora B IC50 (nM)]/[PLK4 IC50 (nM)]",
    "OBSERVED": 353.7741
  },
  {
    "COMPOUND SMILES": "COc1ccc2c(c1)[C@]1(C[C@H]1c1ccc3c(Nc4cc(-c5ncco5)cnc4OC)n[nH]c3c1)C(=O)N2",
    "OBSERVABLE": "[Aurora B IC50 (nM)]/[PLK4 IC50 (nM)]",
    "OBSERVED": 831.7349
  },
  {
    "COMPOUND SMILES": "COc1ccc2c(c1)[C@]1(C[C@H]1c1ccc3c(Nc4nc(SC)ncc4OC)n[nH]c3c1)C(=O)N2",
    "OBSERVABLE": "[Aurora B IC50 (nM)]/[PLK4 IC50 (nM)]",
    "OBSERVED": 68.0773
  },
  {
    "COMPOUND SMILES": "COc1ccc2c(c1)[C@]1(C[C@H]1c1ccc3c(Nc4ncc(P(C)(C)=O)nc4OC)n[nH]c3c1)C(=O)N2",
    "OBSERVABLE": "[Aurora B IC50 (nM)]/[PLK4 IC50 (nM)]",
    "OBSERVED": 130.8780
  },
  {
    "COMPOUND SMILES": "COc1ccc2c(c1)[C@]1(C[C@H]1c1ccc3c(Nc4ccc(C(=O)N(C)OC)nc4OC)n[nH]c3c1)C(=O)N2",
    "OBSERVABLE": "[Aurora B IC50 (nM)]/[PLK4 IC50 (nM)]",
    "OBSERVED": 70.8586
  },
  {
    "COMPOUND SMILES": "COc1ccc2c(c1)[C@]1(C[C@H]1c1ccc3c(Nc4ncncc4Cl)n[nH]c3c1)C(=O)N2",
    "OBSERVABLE": "[Aurora B IC50 (nM)]/[PLK4 IC50 (nM)]",
    "OBSERVED": 47.27
  },
  {
    "COMPOUND SMILES": "COc1ccc2c(c1)[C@]1(C[C@H]1c1ccc3c(Nc4cc(N5CCS(=O)(=O)CC5)nc(C5CC5)n4)n[nH]c3c1)C(=O)N2",
    "OBSERVABLE": "[Aurora B IC50 (nM)]/[PLK4 IC50 (nM)]",
    "OBSERVED": 39.23
  }
]

* * *

// reported pIC50 for each item listed
- STUDY SYSTEM: human recombinant PLK4 (Homo sapiens (Human))
- Sequence (O00444 whole entry): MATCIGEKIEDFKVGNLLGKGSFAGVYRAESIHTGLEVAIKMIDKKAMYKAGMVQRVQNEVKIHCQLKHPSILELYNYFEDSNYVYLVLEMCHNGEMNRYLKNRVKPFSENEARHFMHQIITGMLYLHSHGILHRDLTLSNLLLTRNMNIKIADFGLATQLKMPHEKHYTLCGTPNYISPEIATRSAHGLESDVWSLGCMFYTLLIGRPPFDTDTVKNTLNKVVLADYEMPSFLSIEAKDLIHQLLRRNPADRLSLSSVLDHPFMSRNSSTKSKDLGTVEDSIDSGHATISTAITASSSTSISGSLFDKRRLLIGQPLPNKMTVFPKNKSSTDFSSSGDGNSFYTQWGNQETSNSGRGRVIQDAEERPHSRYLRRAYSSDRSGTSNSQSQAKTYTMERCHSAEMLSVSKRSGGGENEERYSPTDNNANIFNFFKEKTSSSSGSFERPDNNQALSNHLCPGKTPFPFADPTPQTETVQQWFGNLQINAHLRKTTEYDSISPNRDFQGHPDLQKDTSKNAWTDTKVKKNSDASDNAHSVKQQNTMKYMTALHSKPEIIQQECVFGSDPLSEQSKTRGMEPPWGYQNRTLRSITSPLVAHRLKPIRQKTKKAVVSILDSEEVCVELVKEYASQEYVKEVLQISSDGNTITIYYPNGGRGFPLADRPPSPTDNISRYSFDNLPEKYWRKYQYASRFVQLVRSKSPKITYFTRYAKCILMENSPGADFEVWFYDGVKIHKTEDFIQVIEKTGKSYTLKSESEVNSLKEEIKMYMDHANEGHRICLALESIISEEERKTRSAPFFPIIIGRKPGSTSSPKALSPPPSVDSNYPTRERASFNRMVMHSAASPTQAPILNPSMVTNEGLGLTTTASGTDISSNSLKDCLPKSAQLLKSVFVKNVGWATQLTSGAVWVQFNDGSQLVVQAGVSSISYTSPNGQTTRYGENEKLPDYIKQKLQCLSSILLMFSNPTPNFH
- METHOD NOTES: PLK4 Biochemical Assay (ADP-Glo)
- PARTICULARS: 0.5 nM PLK4, 8.0 µM ATP, 4.7 µM MBP, 6 hours at RT
pIC50: −log10 of the molar value.
OBSERVABLE: pIC50

[
  {
    "COMPOUND SMILES": "COc1ccc2c(c1)[C@]1(C[C@H]1c1ccc3c(Nc4ccc(C(=O)N5[C@H](C)CCC[C@@H]5C)nc4OC)n[nH]c3c1)C(=O)N2",
    "OBSERVABLE": "pIC50",
    "OBSERVED": 9.13
  },
  {
    "COMPOUND SMILES": "COc1ccc2c(c1)[C@]1(C[C@H]1c1ccc3c(Nc4cc(C)ncc4OC)n[nH]c3c1)C(=O)N2",
    "OBSERVABLE": "pIC50",
    "OBSERVED": 7.67
  },
  {
    "COMPOUND SMILES": "COc1ccc2c(c1)[C@]1(C[C@H]1c1ccc3c(Nc4ccc(S(=O)(=O)N(C)C)nc4OC)n[nH]c3c1)C(=O)N2",
    "OBSERVABLE": "pIC50",
    "OBSERVED": 8.87
  }
]

* * *

- STUDY SYSTEM: human recombinant PLK4 (Homo sapiens (Human))
- METHOD NOTES: PLK4 Biochemical Assay (ADP-Glo)
- PARTICULARS: 0.5 nM PLK4, 8.0 µM ATP, 4.7 µM MBP, 6 hours at RT
pIC50: −log10 of the molar value.
Below, each of the molecules is paired with its reported pIC50 value.
OBSERVABLE: pIC50

[
  {
    "MOLECULE": "COc1ccc2c(c1)[C@]1(C[C@H]1c1ccc3c(Nc4cc(C(C)(C)O)cnc4OC)n[nH]c3c1)C(=O)N2 [Example 226]",
    "OBSERVABLE": "pIC50",
    "OBSERVED": 8.32
  },
  {
    "MOLECULE": "COc1ccc2c(c1)[C@]1(C[C@H]1c1ccc3c(Nc4nc(Cl)ncc4OC)n[nH]c3c1)C(=O)N2 [Example 10]",
    "OBSERVABLE": "pIC50",
    "OBSERVED": 8.80
  },
  {
    "MOLECULE": "COc1ccc2c(c1)[C@]1(C[C@H]1c1ccc3c(Nc4cc(OC)ncn4)n[nH]c3c1)C(=O)N2 [Example 14]",
    "OBSERVABLE": "pIC50",
    "OBSERVED": 7.44
  },
  {
    "MOLECULE": "COc1ccc2c(c1)[C@]1(C[C@H]1c1ccc3c(Nc4nc(C)ncc4OC)n[nH]c3c1)C(=O)N2 [Example 87]",
    "OBSERVABLE": "pIC50",
    "OBSERVED": 8.80
  }
]

* * *

Measured [Aurora B IC50 (nM)]/[PLK4 IC50 (nM)], listed per entry.
- STUDY SYSTEM: human recombinant Aurora B (Homo sapiens (Human))
- METHOD NOTES: Aurora B Kinase Biochemical Assay (ADP-Glo)
- PARTICULARS: ratio of Aurora B IC50 to PLK4 IC50 (selectivity)

[
  {
    "MOLECULE": "COc1ccc2c(c1)[C@]1(C[C@H]1c1ccc3c(Nc4nc(C)ncc4OCC(F)(F)F)n[nH]c3c1)C(=O)N2 [Example 149]",
    "[Aurora B IC50 (nM)]/[PLK4 IC50 (nM)]": 879.4799
  },
  {
    "MOLECULE": "COc1ccc2c(c1)[C@]1(C[C@H]1c1ccc3c(Nc4nc(Cl)nc(N5CCOCC5)c4OC)n[nH]c3c1)C(=O)N2 [Example 48]",
    "[Aurora B IC50 (nM)]/[PLK4 IC50 (nM)]": 292.3406
  },
  {
    "MOLECULE": "COc1ccc2c(c1)[C@]1(C[C@H]1c1ccc3c(Nc4cncc(C5COC5)n4)n[nH]c3c1)C(=O)N2 [Example 115]",
    "[Aurora B IC50 (nM)]/[PLK4 IC50 (nM)]": 186.3415
  },
  {
    "MOLECULE": "COc1ccc2c(c1)[C@]1(C[C@H]1c1ccc3c(Nc4nc(N5CCOCC5)ncc4OC)n[nH]c3c1)C(=O)N2 [Example 97]",
    "[Aurora B IC50 (nM)]/[PLK4 IC50 (nM)]": 520.2809
  },
  {
    "MOLECULE": "COc1ccc2c(c1)[C@]1(C[C@H]1c1ccc3c(Nc4ncnc(N5CCOCC5)c4OC)n[nH]c3c1)C(=O)N2C [Example 113]",
    "[Aurora B IC50 (nM)]/[PLK4 IC50 (nM)]": 231.7370
  },
  {
    "MOLECULE": "COc1ccc2c(c1)[C@]1(C[C@H]1c1ccc3c(Nc4nc(C)cnc4C)n[nH]c3c1)C(=O)N2.O=C(O)C(F)(F)F [Example 82]",
    "[Aurora B IC50 (nM)]/[PLK4 IC50 (nM)]": 38.55
  },
  {
    "MOLECULE": "COc1ccc2c(c1)[C@]1(C[C@H]1c1ccc3c(Nc4nc(Cl)ncc4OC)n[nH]c3c1)C(=O)N2 [Example 10]",
    "[Aurora B IC50 (nM)]/[PLK4 IC50 (nM)]": 103.0876
  }
]

* * *

- STUDY SYSTEM: human recombinant PLK4 (Homo sapiens (Human))
- METHOD NOTES: PLK4 Biochemical Assay (ADP-Glo)
- PARTICULARS: 0.5 nM PLK4, 8.0 µM ATP, 4.7 µM MBP, 6 hours at RT
Label true (1) when IC50 is strictly below 3 nM; otherwise label false (0).

[
  {
    "MOLECULE": "COc1ccc2c(c1)[C@]1(C[C@H]1c1ccc3c(Nc4cc(C(C)C)nnc4OC)n[nH]c3c1)C(=O)N2 [Example 101]",
    "LABEL": "false (0)"
  },
  {
    "MOLECULE": "COc1ccc2c(c1)[C@]1(C[C@H]1c1ccc3c(Nc4cnccc4OC)n[nH]c3c1)C(=O)N2 [Example 18]",
    "LABEL": "false (0)"
  },
  {
    "MOLECULE": "COc1ccc2c(c1)[C@]1(C[C@H]1c1ccc3c(Nc4ccc(C(=O)N5CCOCC5)nc4OC)n[nH]c3c1)C(=O)N2 [Example 183]",
    "LABEL": "true (1)"
  },
  {
    "MOLECULE": "COc1ccc2c(c1)[C@]1(C[C@H]1c1ccc3c(Nc4nc(C)ccc4OC)n[nH]c3c1)C(=O)N2 [Example 88]",
    "LABEL": "true (1)"
  },
  {
    "MOLECULE": "CCOc1cc(S(C)(=O)=O)cnc1Nc1n[nH]c2cc([C@@H]3C[C@@]34C(=O)Nc3ccc(Cl)cc34)ccc12 [Example 276]",
    "LABEL": "true (1)"
  },
  {
    "MOLECULE": "COc1cnc(C)nc1Nc1n[nH]c2cc([C@@H]3C[C@@]34C(=O)Nc3ccc(OC(F)(F)F)cc34)ccc12 [Example 138]",
    "LABEL": "false (0)"
  },
  {
    "MOLECULE": "COc1ccc2c(c1)[C@]1(C[C@H]1c1ccc3c(Nc4ncnc(N5CCOCC5)c4Cl)n[nH]c3c1)C(=O)N2 [Example 9]",
    "LABEL": "true (1)"
  }
]
